Biological target: HLA-A*30:02
Test: IEDB peptide-MHC binding, purified MHC/competitive/radioactivity; filed as Kd, often an IC50 or EC50 that approximates it; bounds were set here for any values at or beyond the usual limits of such assays
Conditions: source organism: Mammarenavirus guanaritoense
pKd overview
# pKd = -log10(concentration in molar units)

YSDPKRFFL ... 7.07
GEKSRCYSLY ... 6.12
YVQRFFLRV ... 6.14

API: the following record is the query input.
# input Record request: pKd value, item VFQAKSAFV
# output 5.98

----------
Molecular target: HLA-B*08:03
Test: IEDB peptide-MHC binding, purified MHC/direct/fluorescence; filed as Kd, often an IC50 or EC50 that approximates it; bounds were set here for any values at or beyond the usual limits of such assays
Details: source organism: Escherichia coli O157:H7 str. EC869
pKd: −log10 of the molar value.
observed.property: pKd

# input Record request: pKd value, item YQAFRTKVH
# output ≤ 4.70
